# Assay method text: protein stability index of a GFP-peptide fusion (GPS, HEK-293T) (PSI 1-6); higher = more stable;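 further: 24-mer peptide tiles fused after GFP, lentivirally expressed, FACS-sorted into six equal bins by GFP/DsRed ratio, decoded by Illumina sequencing, PSI is the read-weighted mean bin number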
# Test parameters: treatment: MLN4924 1 uM, 8 h; c terminus: a fixed tail appended
List of protein stability index values.
Returns: the value as a bare number; no unit string appended.

Example cases with answers are listed next.
Query: Returns the measured protein stability index for the input sequence. Input: QKVATLEKRNRQLRERVKKVKRSL [CCDC3]
Response: 4.89

Query: Same lookup for KAPDIECVLRCSVLEIEQSMNRVK [FEM1B] , please.
Response: 2.55

Query: Same read-out for GNDRRREWAALGNMSKEDAMVEFV [ACBD3] ?
Response: 4.3

Further cases:
Query: Returns the measured protein stability index for the input sequence. Input: PLELLPGGPARPLGPGPAAPRLLK [CEBPD]
Response: 4.54

Query: Would you kindly repeat that for PFETREPPPAYEPPAPAPLPPPSA [SCAMP3] ?
Response: 5.08

Query: Follow-up entry: YLEVLETMDNKKGRRYEAVKWMVV [CLCN6]
Response: 2.25

Query: Now this one: LRLPMLNTEVVQVAAGRTQKAGVT [NEK8]
Response: 3.47

Query: Can you check LSEASGGRAENGERSDLEEDNERE [ZC3H15] next?
Response: 5.81

###

# Assay method text: protein stability index of a GFP-peptide fusion (GPS, HEK-293T) (PSI 1-6); higher = more stable
# Test parameters: treatment: DMSO; c terminus: a fixed tail appended
Mark Yes for reported protein stability index of 3 or greater; mark No for anything smaller.

# count of solved cases: 5
Query: Exam item: decide whether the reported protein stability index for IIELLASDAGSPSLHKHLTIRLNI [PCDHGC5] is at least 3.
Response: Yes

Query: Param item: KEAKTKYPNYEFISDNSISWSAGL [FUT8]
Response: No

Query: // next record CVATTGDITVSVSTSFLPELSSVH [FBXO3]
Response: No

Query: Also check TALLGGPRRCHSAPPQGSCGDELP [PLEKHN1]
Response: Yes

Query: Also SSRSTVPTPAKRRSSALWSEMLDI [NET1] , if possible.
Response: No

Continuing:
Query: Given the entry LLNLVDHTEVVRDLTFAPDGSLIL [WSB1] , answer whether its protein stability index meets or surpasses 3.
Response: No

Query: Again, but for VPGHQTPSDLDQFSDSSLIEDSQA [LURAP1L]
Response: Yes

###

# Assay method text: protein stability index of a GFP-peptide fusion (GPS, HEK-293T) (PSI 1-6); higher = more stable
# Test parameters: treatment: MLN4924 1 uM, 8 h; c terminus: a fixed tail appended
Observable: protein stability index
Lab note: jot down the number only; don't add units.

# example entries with known answers
Query: Data request, read-out protein stability index, for HRGLRCSWEGLAVLDSLLLTLLPQ [RSAD1]
Response: 3.07

Query: Okay, and EEEDDDDIHITARIESDLTLESLS [DRICH1] ?
Response: 5.16

Query: Follow-up entry: PSLAVNLADPYRSLKAPGARGPGP [JUNB]
Response: 3.83

Next:
Query: // protein stability index lookup, key: TAQHQRRLAAIAQEKDQEMERLRE [FBF1]
Response: 5.42

Query: What about this sequence? PANVDASVMFRKWRDSKGKDKEYA [UBE2R2]
Response: 3.95

Query: Same thing, different sequence: LSELLRYHTSQSGDEMTSLSEYVS [HSP90AB1]
Response: 3.6

Query: Thanks! And KSHFQNSREWSGKEKWWDGQRDRK [PBXIP1] ?
Response: 3.98

Query: # iterate: GVSALCAICGDRATGKHYGASSCD [HNF4A]
Response: 3.75

Query: Same thing, different sequence: LVMPIEDQLTQIMRTGQNTWESKN [PCMTD1]
Response: 3.2

Query: What about SSAPDLMCLSPDRKMEVEELSPLA [CDC25B] ?
Response: 5

Query: Lookup PPPPPPHNSGPPPPPARGRGAPPP [WASL]
Response: 5.19

Query: Entry to check: HLTVVAIFYGSGIFNYMRLGSTKL [OR3A1]
Response: 2.76

Query: Same lookup for LQGKDAWLPLHYAAWQGHLPIVKL [RIPK4] , please.
Response: 2.48
